Values compiled from patent US20200332006A1.

Target: T1, human LSAMP, expressed on HEK293 cells (human, UniProt Q13449 29-315)
T1 construct: also called BC033803
T1 sequence: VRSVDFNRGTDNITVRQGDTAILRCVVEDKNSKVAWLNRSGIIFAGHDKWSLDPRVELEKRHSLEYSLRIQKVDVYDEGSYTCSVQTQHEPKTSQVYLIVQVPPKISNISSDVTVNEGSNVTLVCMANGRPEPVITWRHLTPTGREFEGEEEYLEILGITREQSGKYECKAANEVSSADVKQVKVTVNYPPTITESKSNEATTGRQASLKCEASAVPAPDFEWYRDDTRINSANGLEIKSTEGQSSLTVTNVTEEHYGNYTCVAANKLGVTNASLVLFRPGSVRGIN
Assay: flow cytometry on transfected HEK293 cells, 2 ug/ml IgG
Endpoint Name: fold fluorescence change versus mock (ZSgreen only) cells (fold)
# output: bare number, implied unit fold

Exercise: Given Antibody MH8, IgG1null format (antibody, V domains shown, Tested as IgG1null (human IgG1 L234A, L235A, G237A) with human Ckappa; also called clone MH8) VH: EVQLVESGGGLVQPGGSLRLSCAASGFTFSSYGMSWVRQAPGKGLEWVANIWQDGSTKYVDSVKGRFTISRDNAKNSLYLQMNSLRAEDTAVYYCARAYGNYWYIDRWGQGTTVTVSS VL: DIVMTQSPDSLAVSLGERATINCKSSQSVTNDVAWYQQKPGQPPKLLINYAYHRFTGVPDRFSGSGYGTDFTLTISSLQAEDVAVYYCHQAYSTPYTFGQGTKLEIK , state its recorded fold fluorescence change versus mock (ZSgreen only) cells.
Key: 7.1
